# EXPERIMENTAL_PROTOCOL: qHTS profiling of the MIPE4 collection as inhibitors of Plasmodium falciparum (DD2) proliferation (Rep 2) (AID 743346)
# PROTOCOL_CONDITIONS: P. falciparum Dd2 in erythrocytes, SYBR Green DNA, 72 h; at 28.5 µM unless noted
# Procedure: Plasmodium falciparum is a virulent malarial parasite that kills 1-2 million people worldwide each year. […] Because mature erythrocytes lack DNA, only Plasmodium-derived DNA is detected. The SYBR Green viability assay was adapted from a method described previously (Plouffe et al., 2008). […] The following morning, fluorescence intensity at 485(14) nm excitation and 535(25) nm emission wavelengths was measured on an EnVision (Perkin Elmer) plate reader. […]
For each record, write down the corresponding parasite growth, % of control (lower = inhibition).
Answers are plain numbers, in %.

Your task in this section: give parasite growth, % of control (lower = inhibition) for each listed record.
1. COc1ccc(C2CNC(=O)C2)cc1OC1CCCC1 (centres undefined)
2. O=C(Nc1ccc([N+](=O)[O-])cc1Cl)c1cc(Cl)ccc1O
3. CN(Cc1cnc2nc(N)nc(N)c2n1)c1ccc(C(=O)N[C@@H](CCC(=O)O)C(=O)O)cc1
4. Cc1ccccc1N1C(=O)c2cc(S(N)(=O)=O)c(Cl)cc2NC1C (centres undefined)

Found:
[116, 6.93, 8.39, 83.2]

Your task in this section: give parasite growth, % of control (lower = inhibition) for each listed record.
1. CN(CCOc1ccc(NS(C)(=O)=O)cc1)CCc1ccc(NS(C)(=O)=O)cc1
2. Cc1ccc(-c2cc(C(F)(F)F)nn2-c2ccc(S(N)(=O)=O)cc2)cc1

Found:
1. 119
2. 35

Your task in this section: give parasite growth, % of control (lower = inhibition) for each listed record.
1. CC#C[C@]1(O)CC[C@H]2[C@@H]3CCC4=CC(=O)CCC4=C3[C@@H](c3ccc(N(C)C)cc3)C[C@@]21C
2. O=C(c1ccc(F)cc1)C1CCN(CCn2c(=O)[nH]c3ccccc3c2=O)CC1

Found:
11.9
104

----------
# EXPERIMENTAL_PROTOCOL: qHTS drug screen for cell cycle checkpoint inhibitors in PARPi-resistant BRCA-mutant ovarian cancer cell lines. (AID 1963452)
# PROTOCOL_CONDITIONS: PEO1/OlaR viability, CellTiter-Glo luminescence, 96 h; measured here: PEO1 parental Z-AUC; stronger effect = lower value
Class key for Z-AUC values: lower level: < 0.4; middle level: ≥ 0.4 and < 0.8; upper level: ≥ 0.8

Take a look at these entries with their results.
Lookup: // return the class label for `CC[N+](CC)(CC)CCOc1cccc(OCC[N+](CC)(CC)CC)c1OCC[N+](CC)(CC)CC`
Found: upper level

Lookup: // return the class label for `NCCCCCC(=O)O`
Found: upper level

Lookup: // return the class label for Cc1ccccc1N1C(=O)c2cc(S(N)(=O)=O)c(Cl)cc2NC1C (centres undefined)
Found: lower level

Lookup: // return the class label for `OCCN(CCO)c1nc(N2CCCCC2)c2nc(N(CCO)CCO)nc(N3CCCCC3)c2n1`
Found: middle level

Lookup: // return the class label for `O=C1N(c2ccccc2)c2ccccc2C1(Cc1ccncc1)Cc1ccncc1`
Found: upper level

Lookup: // return the class label for CC(C)NCC(O)COc1ccc(CCOCC2CC2)cc1 (centres undefined)
Found: upper level

***
Lookup: // return the class label for Clc1ccc(C(c2ccccc2Cl)C(Cl)Cl)cc1 (centres undefined)
Found: lower level

Lookup: // return the class label for `CN(C)CCOC(c1ccccc1)c1ccccc1`
Found: middle level

Lookup: // return the class label for `CCOC(=O)Nc1ccc(NCc2ccc(F)cc2)nc1N`
Found: lower level

Lookup: // return the class label for `NC(=O)OCC(COC(N)=O)c1ccccc1`
Found: upper level

Lookup: // return the class label for `NC12CC3CC(CC(C3)C1)C2`
Found: lower level

Lookup: // return the class label for `CC(=O)OCC(CCn1cnc2cnc(N)nc21)COC(C)=O`
Found: upper level

Lookup: // return the class label for `O=C(Nc1ccc([N+](=O)[O-])cc1Cl)c1cc(Cl)ccc1O`
Found: lower level

Lookup: // return the class label for `CN1CCN(C2=Nc3cc(Cl)ccc3Nc3ccccc32)CC1`
Found: middle level

Lookup: // return the class label for `CC(C)(C)C(=O)Oc1ccc(S(=O)(=O)Nc2ccccc2C(=O)NCC(=O)O)cc1`
Found: upper level

Lookup: // return the class label for `CC[C@@]1(O)C(=O)OCc2c1cc1n(c2=O)Cc2cc3c(CN(C)C)c(O)ccc3nc2-1`
Found: lower level

Lookup: // return the class label for CN1C2CCC1CC(OC(=O)C(CO)c1ccccc1)C2 (centres undefined)
Found: middle level

----------
# EXPERIMENTAL_PROTOCOL: Quantitative High-Throughput drug screen in 47 multiple myeloma cell lines against the NCATS MIPE library collection: KMS11_JCRBsus cell viability assay (AID 1919873); also: nearly all actives have a fitted effect of over 50% in size
# PROTOCOL_CONDITIONS: KMS11 myeloma viability, CellTiter-Glo ATP luminescence, 48 h; series mostly up to 45.8 µM
Inconclusive results are not listed. The source made the active and inactive calls. Calls come from the whole dose curve; as a rule, active = well fitted cell-killing curve with a large enough effect; inconclusive = small, poorly fitted or top-dose-only effect, or effect the other way; inactive = no such curve, though single readings can be large or run the other way.
Respond with a class label; see active, inactive

Take a look at these entries with their results.
Lookup: Hello, I am checking results. What call was entered for CCN1CCCC1CNC(=O)c1cc(S(=O)(=O)CC)c(N)cc1OC (stereo unspecified) ?
Found: inactive

Lookup: Hello, I am checking results. What call was entered for CC(CCc1ccc(O)cc1)NCCc1ccc(O)c(O)c1 (stereo unspecified) ?
Found: active

Lookup: Hello, I am checking results. What call was entered for `CN1C(C(=O)Nc2ccccn2)=C(O)c2ccccc2S1(=O)=O` ?
Found: inactive

***
Lookup: Hello, I am checking results. What call was entered for `O=C1c2c(O)ccc(O)c2C(=O)c2c(NCCNCCO)ccc(NCCNCCO)c21` ?
Found: active

Lookup: Hello, I am checking results. What call was entered for `O=C(CCCN1CCC(O)(c2ccc(Cl)cc2)CC1)c1ccc(F)cc1` ?
Found: active

Lookup: Hello, I am checking results. What call was entered for `O=c1[nH]cc(F)c(=O)[nH]1` ?
Found: active

Lookup: Hello, I am checking results. What call was entered for `Clc1ccc2nsnc2c1NC1=NCCN1` ?
Found: inactive

----------
# EXPERIMENTAL_PROTOCOL: qHTS of pediatric cancer cell lines to identify multiple opportunities for drug repurposing: Confirmatory screen for BT-37 cells (AID 1347117);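 also: potency is read from the fitted curve at half-maximal effect; viability measured after 48 h of compound exposure; nearly all actives have a fitted effect of over 55% in size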
# PROTOCOL_CONDITIONS: BT-37 pediatric cancer cells, viability; series mostly up to 45.9 µM
Inconclusive results are not listed. Active and inactive are the calls of the source. The call rests on the fitted dose curve; in most records, active means well fitted cell-killing curve with a large enough effect; inconclusive means small, poorly fitted or top-dose-only effect; inactive means no such curve, though single readings can be large or run the other way.
EXPERIMENTAL_ENDPOINT: Potency

Example entries begin here.
Lookup: Entry under review: CC(C)NCC(O)c1ccc(O)c(O)c1 (stereo not given) . Reported Potency?
Found: 5220 nM (active)

Lookup: Entry under review: CC(COc1ccccc1)N(CCCl)Cc1ccccc1 (stereo not given) . Reported Potency?
Found: 18500 nM (active)

Your task in this section: give Potency for each listed record.
1. CC[C@@]1(O)C(=O)OCc2c1cc1n(c2=O)Cc2cc3c(CN(C)C)c(O)ccc3nc2-1
2. O=C(Nc1ccc([N+](=O)[O-])cc1Cl)c1cc(Cl)ccc1O
3. COc1cc2c(c(OC)c1OC)-c1ccc(OC)c(=O)cc1[C@@H](NC(C)=O)CC2

Found:
1: 117 nM (active); 2: 1440 nM (active); 3: 56.2 nM (active)

----------
# EXPERIMENTAL_PROTOCOL: qHTS Screen of the MIPE 4.0 Collection Against Ewings Sarcoma (TC32) (AID 1259256); also: nearly all actives have a fitted effect of over 45% in size
# PROTOCOL_CONDITIONS: TC32 Ewing sarcoma viability, CellTiter-Glo, 48 h; series mostly up to 45.8 µM
Results filed as inconclusive are left out. Active and inactive are the calls of the source. Calls come from the whole dose curve; as a rule, active = well fitted inhibition curve with a large enough effect; inconclusive = small, poorly fitted or top-dose-only effect; inactive = no such curve, though single readings can be large or run the other way.
Respond with a class label; see class 1 for active, class 0 for inactive

Lookup: Hello, I am checking results. What call was entered for `O=C(CCCN1CCC(O)(c2ccc(Cl)cc2)CC1)c1ccc(F)cc1` ?
Found: class 1

Lookup: Hello, I am checking results. What call was entered for CC1COc2c(N3CCN(C)CC3)c(F)cc3c(=O)c(C(=O)O)cn1c23 (stereo not drawn) ?
Found: class 0

Lookup: Hello, I am checking results. What call was entered for COc1cc2nc(N(C)CCCNC(=O)C3CCCO3)nc(N)c2cc1OC (stereo not drawn) ?
Found: class 0

Lookup: Hello, I am checking results. What call was entered for `C[C@@H]1CC(=O)NN=C1c1ccc(NN=C(C#N)C#N)cc1` ?
Found: class 1

Lookup: Hello, I am checking results. What call was entered for COc1ccc(C2CNC(=O)C2)cc1OC1CCCC1 (stereo not drawn) ?
Found: class 0

***
Lookup: Hello, I am checking results. What call was entered for `O=C(c1ccc(OCCN2CCCCC2)cc1)c1c(-c2ccc(O)cc2)sc2cc(O)ccc12` ?
Found: class 1

Lookup: Hello, I am checking results. What call was entered for `CN(C)CCCN1c2ccccc2CCc2ccc(Cl)cc21` ?
Found: class 1

Lookup: Hello, I am checking results. What call was entered for `CS(=O)(=O)Nc1ccc([N+](=O)[O-])cc1Oc1ccccc1` ?
Found: class 1

Lookup: Hello, I am checking results. What call was entered for NC(CO)C(=O)NNCc1ccc(O)c(O)c1O (stereo not drawn) ?
Found: class 1

Lookup: Hello, I am checking results. What call was entered for `O=C(c1ccc(F)cc1)C1CCN(CCn2c(=O)[nH]c3ccccc3c2=O)CC1` ?
Found: class 0

Lookup: Hello, I am checking results. What call was entered for `O=C(Nc1ccc([N+](=O)[O-])cc1Cl)c1cc(Cl)ccc1O` ?
Found: class 1

The origin of these recorded values is PubChem BioAssay (NCATS).
